These entries and their values trace back to patent US9884063B2.

Target: TNKS2 (Homo sapiens)
Sequence (Q9H2K2 1-1166): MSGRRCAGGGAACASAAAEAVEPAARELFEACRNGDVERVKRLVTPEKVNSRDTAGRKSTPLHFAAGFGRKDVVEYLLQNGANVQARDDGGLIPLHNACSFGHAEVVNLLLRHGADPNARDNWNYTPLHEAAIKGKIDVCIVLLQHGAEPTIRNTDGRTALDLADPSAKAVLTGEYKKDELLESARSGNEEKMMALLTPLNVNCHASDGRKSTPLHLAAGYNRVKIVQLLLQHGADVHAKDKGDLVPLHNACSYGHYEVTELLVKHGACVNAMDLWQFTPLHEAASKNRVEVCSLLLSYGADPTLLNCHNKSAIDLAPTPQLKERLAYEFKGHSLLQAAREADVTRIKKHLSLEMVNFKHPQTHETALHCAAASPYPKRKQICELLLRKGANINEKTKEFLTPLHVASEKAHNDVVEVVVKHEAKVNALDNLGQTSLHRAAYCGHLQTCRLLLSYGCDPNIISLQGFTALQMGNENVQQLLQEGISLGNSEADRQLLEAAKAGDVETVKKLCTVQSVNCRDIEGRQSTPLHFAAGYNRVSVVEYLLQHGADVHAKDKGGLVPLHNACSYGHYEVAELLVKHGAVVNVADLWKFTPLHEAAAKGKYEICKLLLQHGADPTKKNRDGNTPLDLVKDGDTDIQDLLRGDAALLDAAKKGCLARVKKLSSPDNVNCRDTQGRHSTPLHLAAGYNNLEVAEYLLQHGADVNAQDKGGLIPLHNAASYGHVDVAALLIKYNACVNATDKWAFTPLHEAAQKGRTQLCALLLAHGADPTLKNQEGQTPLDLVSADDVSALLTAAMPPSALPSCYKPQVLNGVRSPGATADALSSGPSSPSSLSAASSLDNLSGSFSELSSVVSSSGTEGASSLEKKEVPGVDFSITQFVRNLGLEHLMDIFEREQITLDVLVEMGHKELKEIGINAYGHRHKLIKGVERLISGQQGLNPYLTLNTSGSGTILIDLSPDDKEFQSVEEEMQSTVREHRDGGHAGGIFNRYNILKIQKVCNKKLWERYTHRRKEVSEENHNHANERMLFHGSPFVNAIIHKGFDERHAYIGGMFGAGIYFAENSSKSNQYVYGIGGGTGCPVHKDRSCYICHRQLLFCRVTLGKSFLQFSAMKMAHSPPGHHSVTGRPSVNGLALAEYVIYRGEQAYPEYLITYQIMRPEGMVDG
Experiment: Modified TNKS2 Assay 2 (auto-parsylation, [3H]-NAD+ SPA)
Assay type: biochemical
Details: 6 nM TNKS2, 96 well
Description: The potency of selected compounds according to the invention was assessed applying an modified in vitro inhibition assay. Here, the TNKS2 catalyzed NAD^+-dependent ribosylation of the enzyme itself (auto-parsylation) was detected using [^3H]-NAD^+ as substrate and applying the scintillation proximity assay (SPA) method to detect tritium-labeled, parsylated TNKS2. The intensity of the readout signal is proportional to the incorporated [^3H]-NAD^+. […]
EXPERIMENTAL_ENDPOINT: IC50

Some entries whose results are on file:
{"columns": ["ENTRY_SMILES", "IC50"],
 "data": [
  ["CNC(=O)c1nc[nH]c1C(=O)Nc1ccc(NC(=O)c2cccc(Cl)n2)cc1", "> 10 µM"],
  ["CCNC(=O)c1nc[nH]c1C(=O)Nc1ccc(NC(=O)c2ccc(OC(F)(F)F)cc2F)cc1", "> 10 µM"]
]}

Could you now consider this next molecule?
Provide IC50, system TNKS2 (Homo sapiens), entry `CCc1nc(C(=O)Nc2ccc(NC(=O)c3ccc(F)cc3Cl)cc2)c(C(=O)NC)[nH]1`
> 10 µM
